target: Glycylpeptide N-tetradecanoyltransferase (Candida albicans (strain SC5314 / ATCC MYA-2876) (Yeast), UniProt P30418); test: Inhibition of candida N-myristoyltransferase
REPORTED ENDPOINT: IC50 (µM)

Some molecules with known IC50 results, for comparison:
CCOC(=O)c1oc2cccc(OCC(O)CNC(C)(C)C)c2c1C (configuration not stated): 1.2
CC(=O)c1nccn1-c1oc2cccc(OCCNCc3cccnc3)c2c1C: 0.001
CCOC(=O)c1oc2cccc(OCCCCCNC(C)(C)C)c2c1C: 1.5
COCc1ccc2oc(-c3oc4cccc(OCCNCc5cccnc5)c4c3C)cc2c1: 0.003
CCOC(=O)c1oc2cccc(OCCCN3CCCCC3)c2c1C: 1.6

P = Cc1c(COc2ccccc2C#N)oc2cccc(OCCNCc3cccnc3)c12
Q = CCOC(=O)c1oc2cccc(OCCCCNC(C)(C)C)c2c1C
Param pair: P , Q . Output: the one whose IC50 is numerically greater. Respond using the label that marks the chosen record.
Q
(Q: 4.4 µM, P: 0.017 µM)

a = CCOC(=O)c1oc2cccc(OCCNCc3ccccc3)c2c1C
b = CCOC(=O)c1cc2c(OCCNCc3cccnc3)cccc2o1
Just tell me: smaller IC50 value, a or b ? Respond using the label that marks the chosen record.
a

* * *

molecular target: Glycylpeptide N-tetradecanoyltransferase (Candida albicans (strain SC5314 / ATCC MYA-2876) (Yeast), UniProt P30418); test: Inhibition of candida N-myristoyltransferase
pIC50: −log10 of the molar value.
REPORTED ENDPOINT: pIC50

Some compounds with known pIC50 results, for comparison:
CCOC(=O)c1oc2cccc(OCCNCc3cccnc3)c2c1CC: 5.00
Cc1c(COc2cccc(F)c2)oc2cccc(OCCNCc3cccnc3)c12: 6.96
Cc1c(CCc2ccccc2)oc2cccc(OCCNCc3cccnc3)c12: 5.92
Cc1c(COc2ccc(C#N)cc2)oc2cccc(OCCNCc3cccnc3)c12: 8.03
CCOC(=O)c1oc2cccc(OCCNCc3cccnc3)c2c1C1CC1: 5.36

P = Cc1c(COc2ccc(F)cc2)oc2cccc(OCCNCc3cccnc3)c12
Q = CCOC(=O)c1oc2cccc(OCCNCc3cccnc3)c2c1C(C)C
Just tell me: smaller pIC50 value, P or Q ? Respond using the label that marks the chosen record.
Q

a = Cc1c(COc2ccc(Cl)cc2)oc2cccc(OCCNCc3cccnc3)c12
b = Cc1c(C(=O)Nc2ccccc2)oc2cccc(OCCNCc3cccnc3)c12
c = CCOC(=O)c1oc2cccc(OCCNC(C)(C)C)c2c1C
Arrange the 3 entries by pIC50 so the values rise. Give the labels in the order requested.
c, b, a

* * *

Molecular target: Glycylpeptide N-tetradecanoyltransferase (Candida albicans (strain SC5314 / ATCC MYA-2876) (Yeast))
Sequence (P30418 whole entry): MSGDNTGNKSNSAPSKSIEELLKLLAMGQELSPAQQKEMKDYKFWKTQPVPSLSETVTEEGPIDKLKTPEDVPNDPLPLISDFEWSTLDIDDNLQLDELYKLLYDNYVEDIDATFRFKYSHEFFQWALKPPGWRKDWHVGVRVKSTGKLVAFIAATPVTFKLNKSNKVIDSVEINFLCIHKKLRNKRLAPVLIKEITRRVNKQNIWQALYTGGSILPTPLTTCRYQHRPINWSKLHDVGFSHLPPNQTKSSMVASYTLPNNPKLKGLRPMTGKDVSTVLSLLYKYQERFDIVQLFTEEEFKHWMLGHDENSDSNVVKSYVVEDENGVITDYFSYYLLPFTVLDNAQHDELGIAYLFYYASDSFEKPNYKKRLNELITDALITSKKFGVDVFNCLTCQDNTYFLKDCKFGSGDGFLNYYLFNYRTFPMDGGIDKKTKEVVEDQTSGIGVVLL
Experiment: Inhibition of candida N-myristoyltransferase
REPORTED ENDPOINT: IC50 (nM)

Cc1c(COc2ccccc2F)oc2cccc(OCCNCc3cccnc3)c12: 8.3

I = Cc1c(COc2ccc(F)cc2F)oc2cccc(OCCNCc3cccnc3)c12
II = Cc1c(COc2ccccc2)oc2cccc(OCCNCc3cccnc3)c12
Just tell me: smaller IC50 value, I or II ? Respond using the label that marks the chosen record.
I
(I: 7.5 nM, II: 72 nM)
